runDescription: Tmax in Wistar rat at 1 mg/kg, po
Type: ADME, organism-based
Set-up: dose 1 mg/kg, route oral
testContext: in vivo
measureName: Tmax (min)

Below are worked cases with known answers.
[
  {
    "compound": "CS(=O)(=O)c1ccc(C2=C(c3ccccc3)C(=O)OC2)cc1 [ROFECOXIB]",
    "measured": 24
  },
  {
    "compound": "C[S+]([O-])c1ccc(C2=C(c3ccccc3)C(=O)OC2)cc1 (centres undefined)",
    "measured": 18
  }
]

(a) Cc1ccc(-c2ncc(Cl)cc2-c2ccc([S+](C)[O-])cc2)cn1 (centres undefined)
(b) Cc1ccc(-c2ncc(Cl)cc2-c2ccc(S(C)(=O)=O)cc2)cn1 [ETORICOXIB]
## Task Returns the identifier with the smallest measured Tmax among a and b . Reply with the label of the item you choose.
## Result b
